The measured values listed here are drawn from patent US11045473B2.

test system: LNCaP; test: Proliferation / IC50 by trypan blue cell counts, LNCaP; format: cell-based, human; conditions: Homo sapiens, 288 h, 12 days, 10 μM MTA
endpointName: pIC50
In simple prose, pIC50 is minus the logarithm base ten of a concentration in moles per litre.

**Query** // returns reported pIC50 for input CSC[C@H]1CN(Cc2c[nH]c3c(N)ncnc23)C[C@@H]1O [MTDIA]
**Result** 7.96

* * *

tested on: LNCaP; assay: Proliferation / IC50 by trypan blue cell counts, LNCaP; assay type: cell-based, human; settings: Homo sapiens, 96 h, 4 days, 10 μM MTA
endpointName: IC50

**Query** For the compound CSC[C@H]1CN(Cc2c[nH]c3c(N)ncnc23)C[C@@H]1O , what IC50 is on record?
**Result** > 1000 µM
